Exercise: for every item that follows, state its recorded GI50.
# Test system: BaF3
# PROTOCOL_SUMMARY: Proliferation of BaF3 cells, CCK8 cell viability assay
# Assay type: cell-based
# CONDITION_DESCRIPTION: Mus musculus, 72 hours
Numbers only, in µM.

# annotated cases, reported GI50 shown
Cc1ccc(NC(=O)Nc2ccc(Oc3cc(N4CCN[C@H](C)C4)ncn3)cc2)cc1C(F)(F)F [Example 106]: 8.92
Cc1ccc(NC(=O)Nc2ccc(Oc3cc(N4CCN(C(=O)OC(C)(C)C)C[C@H]4C)ncn3)cc2)cc1C(F)(F)F [Example 100]: 9.01

Now for the compound whose GI50 we want.
## Task Bench note: what GI50 did Cc1ccc(NC(=O)Nc2ccc(Oc3cc(N4CCNC[C@H]4C)ncn3)cc2)cc1C(F)(F)F [Example 105] show?
## Result 9.67

###

Exercise: for every item that follows, state its recorded GI50.
# Tested on: Tel-cKit/T670I-BaF3
# PROTOCOL_SUMMARY: Proliferation of Tel-cKit/T670I-BaF3 cells, CCK8 cell viability assay
# Assay type: cell-based
# CONDITION_DESCRIPTION: Mus musculus, 72 hours, stably expressing cKIT/T670I

# annotated cases, reported GI50 shown
COCCNc1cc(O[C@H]2CC[C@H](NC(=O)Nc3ccc(C)c(C(F)(F)F)c3)CC2)ncn1 [Example 43]: 1120 nM
CCN1CCN(Cc2ccc(NC(=O)Nc3ccc(Oc4cc(NCCN)ncn4)cc3)cc2C(F)(F)F)CC1 [Example 109]: 3360 nM
Cc1ccc(NC(=O)Nc2ccc(Oc3cc(N[C@H](C)CN)ncn3)cc2)cc1C(F)(F)F [Example 113]: 8540 nM
CC(=O)Nc1cc(Oc2ccc(NC(=O)Cc3ccc(F)c(F)c3)cc2)ncn1 [Example 168]: 4230 nM
CC(=O)Nc1cc(Oc2ccc(NC(=O)Cc3ccc4ccccc4c3)cc2)ncn1 [Example 162]: 915 nM
CC(=O)Nc1cc(Oc2ccc(NC(=O)Cc3cccc(Br)c3)cc2)ncn1 [Example 13]: > 10000 nM
Cc1ccc(NC(=O)NC2CCC(Oc3cc(NCCO)ncn3)CC2)cc1C(F)(F)F (centres unmarked) [Example 40]: 2400 nM

## Task Query GI50 on Tel-cKit/T670I-BaF3 for Cc1ccc(NC(=O)Nc2ccc(Oc3cc(NC4CCN(C(=O)OC(C)(C)C)CC4)ncn3)cc2)cc1C(F)(F)F [Example 99]
## Result 990 nM

###

Exercise: for every item that follows, state its recorded GI50.
# Tested on: Tel-cKit/T670I-BaF3
# PROTOCOL_SUMMARY: Proliferation of Tel-cKit/T670I-BaF3 cells, CCK8 cell viability assay
# Assay type: cell-based
# CONDITION_DESCRIPTION: Mus musculus, 72 hours, stably expressing cKIT/T670I
Answers are plain numbers, in µM.

# annotated cases, reported GI50 shown
Cc1ccc(NC(=O)Nc2ccc(Oc3cc(N4CCOC[C@H]4C)ncn3)cc2)cc1C(F)(F)F [Example 114]: 1.01
Cc1ccc(NC(=O)Nc2ccc(Oc3cc(N4CCN[C@H](C)C4)ncn3)cc2)cc1C(F)(F)F [Example 106]: 0.99
Cc1ccc(NC(=O)Nc2ccc(Oc3cc(N4CCNC[C@@H]4C)ncn3)cc2)cc1C(F)(F)F [Example 107]: 0.94
Cc1ccc(NC(=O)Nc2ccc(Oc3cc(N4CCNCC4C)ncn3)cc2)cc1C(F)(F)F (centres unmarked) [Example 104]: 5.13
CCCC(=O)Nc1cc(Oc2ccc(NC(=O)Cc3ccccc3C(F)(F)F)cc2)ncn1 [Example 167]: 7.94
CC(=O)Nc1cc(Oc2ccc(CC(=O)Nc3cccc(Cl)c3C(F)(F)F)cc2)ncn1 [Example 35]: 6.6
CCC(=O)NCCNc1cc(Nc2ccc(CC(=O)Nc3ccc(C)c(C(F)(F)F)c3)cc2)ncn1 [Example 139]: 9.98

Now for the compound whose GI50 we want.
## Task Bench note: what GI50 did COCCNc1cc(OC2CCC(NC(=O)Nc3ccc(C)c(C(F)(F)F)c3)CC2)ncn1 (centres unmarked) [Example 41] show?
## Result 0.707

###

Exercise: for every item that follows, state its recorded GI50.
# System: P210-BaF3
# PROTOCOL_SUMMARY: Proliferation of P210-BaF3 cells, CCK8 cell viability assay
# Type: cell-based
# CONDITION_DESCRIPTION: Mus musculus, 72 hours, stably expressing BCR-ABL mutant activated kinase
# Method: […] GI50 (unit: μM) was calculated by quantifying the number of living cells based on quantitative measurement of reductive dehydrogenase in living cells with CCK8 cell viability assay kit (Bestbio, China).

# annotated cases, reported GI50 shown
CCCCC(=O)Nc1cc(Oc2ccc(NC(=O)Cc3ccccc3C(F)(F)F)cc2)ncn1: > 10 µM
CC(=O)Nc1cc(Oc2ccc(CC(=O)Nc3ccccc3)cc2)ncn1: > 10 µM
C=CC(=O)NCCNc1cc(Nc2ccc(CC(=O)Nc3ccc(C)c(C(F)(F)F)c3)cc2)ncn1: > 10 µM

Each compound below has a recorded value; state its GI50.
1. COc1ccccc1CC(=O)Nc1ccc(Oc2cc(NC(C)=O)ncn2)cc1
2. CC(=O)Nc1cc(Sc2ccc(NC(=O)Cc3ccccc3C(F)(F)F)cc2)ncn1
3. COc1cc(CC(=O)Nc2ccc(Oc3cc(NC(C)=O)ncn3)cc2)cc(OC)c1OC

## Result
["> 10 µM", "8.08 µM", "> 10 µM"]

Each compound below has a recorded value; state its GI50.
1. COCCNc1cc(O[C@H]2CC[C@H](NC(=O)Nc3ccc(C)c(C(F)(F)F)c3)CC2)ncn1
2. Cc1ccc(NC(=O)N[C@H]2CC[C@H](Oc3cc(NCCO)ncn3)CC2)cc1C(F)(F)F

## Result
1. 6.96 µM
2. 5.38 µM

Each compound below has a recorded value; state its GI50.
1. CC(=O)Nc1cc(Oc2ccc(NC(=O)Cc3ccc(F)cc3F)cc2)ncn1
2. CC(=O)Nc1cc(Oc2ccc(NC(=O)Cc3ccccc3Cl)cc2)ncn1
3. CCCC(=O)Nc1cc(Oc2ccc(NC(=O)Cc3ccccc3C(F)(F)F)cc2)ncn1
4. Cc1ccc(NC(=O)Cc2ccc(Nc3cc(NCCN)ncn3)cc2)cc1C(F)(F)F

## Result
> 10 µM
> 10 µM
> 10 µM
> 10 µM

###

# System: P210-BaF3
# PROTOCOL_SUMMARY: Proliferation of P210-BaF3 cells, CCK8 cell viability assay
# Format: cell-based
# CONDITION_DESCRIPTION: Mus musculus, 72 hours, stably expressing BCR-ABL mutant activated kinase
Exercise: for every item that follows, state its recorded GI50.

COCCNc1cc(Oc2ccc(NC(=O)Nc3ccc(C(F)(F)F)cc3)cc2)ncn1: > 10 µM
CCC(=O)NCCNc1cc(Nc2ccc(CC(=O)Nc3ccc(C)c(C(F)(F)F)c3)cc2)ncn1: > 10 µM
CC(C)C(=O)Nc1cc(Oc2ccc(NC(=O)Cc3ccccc3C(F)(F)F)cc2)ncn1: > 10 µM

Each molecule below has a recorded value; state its GI50.
1. CC(=O)Nc1cc(Oc2ccc(NC(=O)Cc3ccc(Cl)cc3Cl)cc2)ncn1
2. Cc1ccc(NC(=O)NC2CCC(Oc3cc(NCCN)ncn3)CC2)cc1C(F)(F)F (centres unmarked)
3. CC(=O)Nc1cc(Oc2ccc(NC(=O)Cc3ccc4ccccc4c3)cc2)ncn1
4. COc1cc(CC(=O)Nc2ccc(Oc3cc(NC(C)=O)ncn3)cc2)ccc1O
5. CCC(=O)Nc1cc(Oc2ccc(NC(=O)Cc3ccccc3C(F)(F)F)cc2)ncn1
6. CC(C)C(=O)Nc1cc(Oc2ccc(NC(=O)Cc3cccc(C(F)(F)F)c3)cc2)ncn1

## Result
1. 6.74 µM
2. > 10 µM
3. > 10 µM
4. > 10 µM
5. > 10 µM
6. > 10 µM

Each molecule below has a recorded value; state its GI50.
1. Cc1ccc(NC(=O)Nc2ccc(Oc3cc(N[C@@H](C)C(=O)O)ncn3)cc2)cc1C(F)(F)F
2. Cc1ccc(NC(=O)NC2CCC(Oc3cc(NCCNC(=O)OC(C)(C)C)ncn3)CC2)cc1C(F)(F)F (centres unmarked)
3. Cc1ccc(NC(=O)Nc2ccc(Oc3cc(NCCN4CCCC4)ncn3)cc2)cc1C(F)(F)F
4. CC(=O)Nc1cc(Oc2ccc(NC(=O)Cc3c(Cl)cccc3Cl)cc2)ncn1
5. CC(=O)Nc1cc(Oc2ccc(CC(=O)N(C)c3ccc(Br)cc3)cc2)ncn1
6. CC(=O)Nc1cc(Oc2ccc(NC(=O)Cc3cccc(F)c3F)cc2)ncn1
7. CC(=O)Nc1cc(Oc2ccc(NC(=O)Cc3ccccc3F)cc2)ncn1
8. Cc1ccc(NC(=O)N[C@H]2CC[C@H](Oc3cc(NCCN)ncn3)CC2)cc1C(F)(F)F

## Result
1. > 10 µM
2. 2.8 µM
3. 3.92 µM
4. > 10 µM
5. > 10 µM
6. > 10 µM
7. > 10 µM
8. > 10 µM

Origin of measurements: patent US11602534B2
